Assay: yeast display, Sf9 membrane polyspecificity reagent, FACS + sequencing; frameworks hold sequencing errors
RECORDED ENDPOINT: polyreactivity (PSR sort gate)

Worked cases, polyreactivity (PSR sort gate) given:
[[record]]
sequence_chain = "QVQLVESAGGLVQAGGSLRLSCAASGRIFSFNAMGWDRQAPGKERELVATIRTDGTTNYADSVKGRFTISRDNAKNTVYLQMNSLKPEDTAVYYCATDSGWSTYDYWGQGTQVTVSS"
experimental_value = "high polyreactivity"

[[record]]
sequence_chain = "QVQLVESGGGLVQAGGSLRLSCAASGLIFYKYAMGWYRPAPGKERELVAAISSSGGSTYYADSVKGRFTISRDNAKNTVYLQMNSLKPEDTAVYYCAARTNRRGYNYWGQGTQVTVSS"
experimental_value = "high polyreactivity"

[[record]]
sequence_chain = "QVQLVESGGGLVQAGGSLRVSCAASGRSFWTDTMGWYRQAPGKEREFVAAITFGDGSTSYADSVKGRFTISRDNAKNTVYLQMNSLKPEDTAVYYCAKRWRRRFVDVWSLYDYWGQGTQVTVSS"
experimental_value = "low polyreactivity"

[[record]]
sequence_chain = "QVQLVESGGGLVQAGGSLRLSCAASGSIFYGNAMGWYRQAPGKERELVASITYSGGTTNYADSVKGRFTISRDNAKNTVYLQMNSLKPEDTAVYYCNADIYPDRYGSTNYDFNYWGQGTQVTVSS"
experimental_value = "low polyreactivity"


Now for a further sequence.
// sample QVQLKENGVGLVQAGGSLRMSCAASGYISHADEMGWNSQAPGKEHELVASISNGGSTNYADSVKGRFTISRDNAKNSVYLQMNSLKSEDTAVYYCAAWTGQVDINYYWGQGSQVTVSS , its polyreactivity (PSR sort gate) was low polyreactivity

---

Assay: yeast display, Sf9 membrane polyspecificity reagent, FACS + sequencing; frameworks hold sequencing errors
RECORDED ENDPOINT: polyreactivity (PSR sort gate)

Record excerpt, results attached:
[[record]]
sequence_chain = "QVHLVESGGGLVLAGGSLRLSCAASGSTLHLYAMGWYRQAPGKERELVADITSGGDTYYADSVKGRFTISRDNAKNTVYFQMNSLKPEDTAVYYCAAGPVYDWRGGALRYYYWGQGTQVSVSS"
experimental_value = "high polyreactivity"

[[record]]
sequence_chain = "QVQLEESGAGLVQAGGSLRLSCAASGITFYYNDMGWYRQAPGKEREMVASISGDGGSTYYADSVKGRFTISRDNAKNTVYLQMNSLKPEDTAVFYCAASAGYYEVLYDYWGQGTQVTVSS"
experimental_value = "low polyreactivity"

[[record]]
sequence_chain = "QVQLVESGGGLVQAGGSLRLSCAASGRRFRWYVMGWYRQAPGKERELVARISSNVGSTYYADSVKGRFTISRDNAKNTVYLQMNSLKPEDTAVYYCAAGPPKYYYSNRYYWGQGTQVTVSS"
experimental_value = "high polyreactivity"

[[record]]
sequence_chain = "QVQLVESGGGLVQAGGSLRLSCAASGRIFKRYAMGWYRQAPGKERELVAAITRSGGSMYYADSVKGRFTISRDNAKNTVYLQMNSLKPEDTAVYYCNKVYGPHPERAVYYEGDYWGQGTQVTVSS"
experimental_value = "high polyreactivity"

[[record]]
sequence_chain = "QVQLVESGGGLVQAGGSLRFSCADSGRTFRYYAMGWDIQARGKERELVAAISRGGRTNYGDSVKGRFTISRDNAKNTVYIQMNSLKPVDTAVYYCAVGGYSYYTVGYDYWGQGTQVTVSS"
experimental_value = "high polyreactivity"

[[record]]
sequence_chain = "QVQLVESGGGLVQAGGSLRLSSAASGRIFRWYAMGWYRQAPGKERELVATISSTGGSTYYADSVKGRFTISRDNAKNTVYLQMNSLKPEDTAVYYSNAVVYGIFLYAWYDYWGQGTQVTVSS"
experimental_value = "low polyreactivity"

[[record]]
sequence_chain = "QVQLVESGGGLVQAGGSLRLSCAASGRIFSYYDMGWYRQAPGKERELVAAITWRGGSTYYADSVKGRFTISRDNAKNTVYLQMNSLKPEDTAVYYCAADWYPSIWEYDYWGQGSQVTVSS"
experimental_value = "low polyreactivity"

[[record]]
sequence_chain = "QVQLVESGGGLVQAGGSLRLSCAPSGFTFRGNAMGWYRQAPGKERELVATISRGGNTNYADSVKGRCTISRDNAKNTVYLQMNSLKPEDTAVYYCAAVSFIRSKVAYNYWGQGTQVTVSS"
experimental_value = "low polyreactivity"


Looking up QVQLVESGGGLVQAGGSLRLSSAASGGIFRYNAMGWYRQAPGKERELVAGISYRGGTTYYADSVKGRFTISRDNAKNTVYLQMNSLKPEDTAVYYCAAAASSPGGWFYYWGQVTQVTVSS , I found its polyreactivity (PSR sort gate) recorded as high polyreactivity

Record QVQLVESGGGLFQAGGSIRLSCAASGRISEGYAMGWYIQAPGKERELVAAITSSTASTYYADSVKGRFTISRDNAKNTVYLQMNSLKPEDTAVYYCNADYGLYPEDYDYWGQGTQVTVSS , field polyreactivity (PSR sort gate): low polyreactivity

Form field polyreactivity (PSR sort gate), entry QVQLVESGGGLVQAGGSLRLSCAASGSIFLYNAMGWYRQAPGKERELVAAISKSGGSTYYADSVKGRFTISRDNAKNTVYLQMNSLKPEDTAVYYCAAGYGRRIRYGSEYDYWGQGTLVTVSS : low polyreactivity

---

Experiment: yeast display, Sf9 membrane polyspecificity reagent, FACS + sequencing; frameworks hold sequencing errors
RECORDED ENDPOINT: polyreactivity (PSR sort gate)

[[record]]
sequence_chain = "QVQLVESGGGLVQAGGSLRLSCAASGIIFTRYVMGWYRQAPRKERELVAAISWSGGRTYYADSVKGRFTISRDNAKNTVYLQMNSLKPEDTAVYYCAAGIYQHAGGDYWGQGTQVTVSS"
experimental_value = "high polyreactivity"

[[record]]
sequence_chain = "QVQLVESGGGLVQAGGSLRLSCAASGRTFYYYTMGWYRQPPRKEREFVAAISWSGGSKYYADSVKGRFTISRDNAKNTVYLQMNSLIPEDTAVYYCNARSFATGSKVPARGYWVQGTQVTVSS"
experimental_value = "high polyreactivity"


---

Experiment: yeast display, Sf9 membrane polyspecificity reagent, FACS + sequencing; frameworks hold sequencing errors
RECORDED ENDPOINT: polyreactivity (PSR sort gate)

// solved cases for polyreactivity (PSR sort gate) follow
[[record]]
sequence_chain = "QVPLVESGGGLVEAGGSLRLSCDASGGIFRGYAKGWYRQAPGKERDLVAAISRGGGSTYYADSVKGRFTISRDNAKNTVYLQLNSLKPEDTAVYYCAAIYTRVYDPVTEFYYWGQGTQVTVSS"
recorded_endpoint = "polyreactivity (PSR sort gate)"
experimental_value = "high polyreactivity"

[[record]]
sequence_chain = "QVQLVESGGGLVQAGGSLRLSCAASGRTLDKYTLGWYRQAPGKERELVASITSGGSTNYADSVKGRFTISRDNAKNTVYLQMNTLKPEDTAVYYCNKRRRVSKMGQGYDYWGQGTQVTVTS"
recorded_endpoint = "polyreactivity (PSR sort gate)"
experimental_value = "low polyreactivity"

[[record]]
sequence_chain = "QVQLVESGGGLVQAGGSLRLSCAASGTFQVNAMGWYIQAPGKERELVAAINSNGGSTYYADSVKGRFTISRDNAKNTVYLQMNSLKPEDTAVYYCAAVYQRRRSYYWGQGTQVTVSS"
recorded_endpoint = "polyreactivity (PSR sort gate)"
experimental_value = "high polyreactivity"

[[record]]
sequence_chain = "QVQLVESGGGLVQAGGSLRLSCAASGSIFTPYAMGWYRQAPGKERELVAAISYSGGSTYYADSVKGRFTISRDNAKNTVYLQMNSLKPEDTAVYYCATDGYVYTPFDDDEDYWGQGTQVTVSS"
recorded_endpoint = "polyreactivity (PSR sort gate)"
experimental_value = "low polyreactivity"


Please examine the following record next.
# polyreactivity (PSR sort gate) (sequence: QVQLVESGGGLVQAGGSLRLSCAASGSIFGNAMGWYRQAPGKERELVAAITRGVSTYYADSVKGRFTISRDNAKNTVYLQMNSLKPEDTAVYYCNKTYVRGVHGVYLPITSYDYWGQGTQVTVSS ) is low polyreactivity

---

Experiment: yeast display, Sf9 membrane polyspecificity reagent, FACS + sequencing; frameworks hold sequencing errors
RECORDED ENDPOINT: polyreactivity (PSR sort gate)

Field: example entries. Status: answers known.
[[record]]
sequence_chain = "QVQLVESGGGLDQAGGTLRLSCAASGSTFSDYAMGWYRQAPGKERQLVAAISVSDGSTYYADSVKGRFTISRDNAKNTVYFQMNSLKPEDTAVYYCAAEYPYFVYSYFRFDYWGQGTQVTVSS"
recorded_endpoint = "polyreactivity (PSR sort gate)"
experimental_value = "low polyreactivity"

[[record]]
sequence_chain = "QVQLVESGGGLVQAGGSLRLSCAASGNILIGNVMGWYRQAPGKERELVAAITSGGDTYYADSVKGRFTISRDNAKNTVNLQMNSLKPEDTAVYYCAADRPGQPKYEYWGQGTQVTVSS"
recorded_endpoint = "polyreactivity (PSR sort gate)"
experimental_value = "low polyreactivity"

[[record]]
sequence_chain = "QVQLVESGGGLVQAGGSLRLSCAASGRMGWYRQAPGKERELVAAITSGDRTNYADSVKGRFTISRDNAKNTVYLQMNSLKREDTAVYYCATEPSWYHGFIDPRGYWGQGTQVTVSS"
recorded_endpoint = "polyreactivity (PSR sort gate)"
experimental_value = "low polyreactivity"

[[record]]
sequence_chain = "QVQLEESGGGLVQAGGSLRLSCAASGITFDDYTMGWYRQAPGKERELVAAITRSGGSTYYADSVKGRFTISRDTAKITVSLQMNSLKPEDTAVYYCSRVKGRGFKNGYWGQGTKVTVSS"
recorded_endpoint = "polyreactivity (PSR sort gate)"
experimental_value = "high polyreactivity"

[[record]]
sequence_chain = "QVQLVESGGGLVQAGGSLRLSCAASGNTFHPYAMGWYRQAPGKERALVAAITKSGGSTYYADSVKGRFTISRDNAKNTVYLQMNSLKPEDTAVYYCATDGYEYTDYGSSGYDYWGQGTQVTVSS"
recorded_endpoint = "polyreactivity (PSR sort gate)"
experimental_value = "low polyreactivity"

[[record]]
sequence_chain = "QVQLVESGGGLVQAGGSLRLSCAASGRIFRYYAMGWYRQAPGKERELVARITNGAITNYADSVKGRFTISRDNAKNTVYLQMNSLKPEDTAVYYCAADPWYTLSVPSGYDYWGQGTQVTVSS"
recorded_endpoint = "polyreactivity (PSR sort gate)"
experimental_value = "high polyreactivity"

[[record]]
sequence_chain = "QVQLVESGGGLVQAGGSLRLSCAASGITFDLYVMGWYRQAPGKERDLVAAINRGTSTYYADSVKGRFTISRDNAKITVYLQMNSLKPEDTAVYYCAADSGGVALYRYDYWGKGTQVTVSS"
recorded_endpoint = "polyreactivity (PSR sort gate)"
experimental_value = "low polyreactivity"

[[record]]
sequence_chain = "QVQLVESGGGLVQAGGSLRLSCAASGRTFRYYTMGWYRQAPGKEREFVAAISSTGGTYYADSVKGRFTISRDNAKNTVYLLMNSLKPEDTAFYYCAATFIQVVVNVQLYDYDYWGQGTQVTVSS"
recorded_endpoint = "polyreactivity (PSR sort gate)"
experimental_value = "low polyreactivity"

[[record]]
sequence_chain = "QVQLVESGGGLVQAGGSLRLSCAASGLTFSSYAMGWYRQAPGKERELVAAITRGGRTQYADSVKGRFTISRDNAKNTVYLQMNSLKPEDTAVYYCARSGNYYYWGQGTQVTVSS"
recorded_endpoint = "polyreactivity (PSR sort gate)"
experimental_value = "high polyreactivity"

[[record]]
sequence_chain = "QVQLVESGGGLVQAGGSLRLSCAASLRTFAWYAMGWYRQAPGKERELVAAITNRGSGTYYADSVKGRFTISRDNAKNTVYLQMNSLKPEDTAVYYCAKDPITATTLDERVFYWGQGTQVTLSS"
recorded_endpoint = "polyreactivity (PSR sort gate)"
experimental_value = "low polyreactivity"


So for QVQLVESGGGLVQAGGTLRLSCAASGITFWYYARGWYRPAPGKERELVAVISYSGGIKSYADSVKGRFTISRENAKNTVNLQMNSMKPEDTAVFYCYTLYGRFKAKVYKYGSWGQGTQVTVSS , the logged polyreactivity (PSR sort gate) turned out to be high polyreactivity

Origin of the recorded values: the nanobody polyreactivity screen of Harvey et al. (2022)
